- Target Under Test: T1, succinyl-L-Ala-L-Ala-L-Pro-L-Phe-p-nitroanilide (SEQ ID NO: 1)
- T1 chain: AAPF
# cutoff 0.3 mM applies to Km pH 10 (mM); >= gives Y, < gives N

Protein	Group Label
N74D/S99G/V102W/S126G/N198A/N212S/T254P (variant of sequence SEQ ID NO: 5) (protein) AQSVPWGISRVQAPAAHNRGLTGSGVKVAVLDTGISTHPDLNIRGGASFVPGEPSTQDGNGHGTHVAGTIAALDNSIGVLGVAPSAELYAVKVLGASGGGSWSSIAQGLEWAGNNGMHVANLSLGGPSPSATLEQAVNSATSRGVLVVAASGNSGAGSISYPARYANAMAVGATDQNNNRASFSQYGAGLDIVAPGVAVQSTYPGSTYASLSGTSMATPHVAGAAALVKQKNPSWSNVQIRNHLKNTATSLGSPNLYGSGLVNAEAATR	N
N74D/S99G/V102W/S126G/D191E/N198G/N212S/T254P (variant of sequence SEQ ID NO: 4) (protein) AQSVPWGISRVQAPAAHNRGLTGSGVKVAVLDTGISTHPDLNIRGGASFVPGEPSTQDGNGHGTHVAGTIAALDNSIGVLGVAPSAELYAVKVLGASGGGSWSSIAQGLEWAGNNGMHVANLSLGGPSPSATLEQAVNSATSRGVLVVAASGNSGAGSISYPARYANAMAVGATDQNNNRASFSQYGAGLEIVAPGVGVQSTYPGSTYASLSGTSMATPHVAGAAALVKQKNPSWSNVQIRNHLKNTATSLGSPNLYGSGLVNAEAATR	N
N74D/S97D/S126G/P204I/T254P/S259N (variant of sequence SEQ ID NO: 6) (protein) AQSVPWGISRVQAPAAHNRGLTGSGVKVAVLDTGISTHPDLNIRGGASFVPGEPSTQDGNGHGTHVAGTIAALDNSIGVLGVAPSAELYAVKVLGADGSGSVSSIAQGLEWAGNNGMHVANLSLGGPSPSATLEQAVNSATSRGVLVVAASGNSGAGSISYPARYANAMAVGATDQNNNRASFSQYGAGLDIVAPGVNVQSTYIGSTYASLNGTSMATPHVAGAAALVKQKNPSWSNVQIRNHLKNTATSLGSPNLYGNGLVNAEAATR	Y
N74D/S101A/V102W (control variant of WO1995010591; sequence SEQ ID NO: 3) (protein) AQSVPWGISRVQAPAAHNRGLTGSGVKVAVLDTGISTHPDLNIRGGASFVPGEPSTQDGNGHGTHVAGTIAALDNSIGVLGVAPSAELYAVKVLGASGSGAWSSIAQGLEWAGNNGMHVANLSLGSPSPSATLEQAVNSATSRGVLVVAASGNSGAGSISYPARYANAMAVGATDQNNNRASFSQYGAGLDIVAPGVNVQSTYPGSTYASLNGTSMATPHVAGAAALVKQKNPSWSNVQIRNHLKNTATSLGSTNLYGSGLVNAEAATR	Y

Below: the item to evaluate.
Ask: Could you verify whether the entry wild-type subtilisin of Bacillus lentus (SEQ ID NO: 2) (protein) AQSVPWGISRVQAPAAHNRGLTGSGVKVAVLDTGISTHPDLNIRGGASFVPGEPSTQDGNGHGTHVAGTIAALNNSIGVLGVAPSAELYAVKVLGASGSGSVSSIAQGLEWAGNNGMHVANLSLGSPSPSATLEQAVNSATSRGVLVVAASGNSGAGSISYPARYANAMAVGATDQNNNRASFSQYGAGLDIVAPGVNVQSTYPGSTYASLNGTSMATPHVAGAAALVKQKNPSWSNVQIRNHLKNTATSLGSTNLYGSGLVNAEAATR shows Km pH 10 (mM) of no less than 0.3 mM?
Reply: Y

Data origin, for the record: patent US20260258390
